experiment: Phase 1 Stage 1 clinical pharmacokinetics of SC ZA co-administered with rHuPH20; assay type: in vivo, human; conditions: human, serum, sc, 0.082 mg/kg, Subj 63; ZA 0.0820 mg/kg SC; inf […]; PH20 6000 U; read-out: AUC (0-inf)
EXPERIMENTAL_READOUT: AUC(0-inf) (ng·h/mL)
Express your answer in ng·h/mL, writing the number without its unit.

Item under review: O=P(O)(O)C(O)(Cn1ccnc1)P(=O)(O)O . Reported AUC(0-inf)?
662

---

test: Phase 1 Stage 1 clinical pharmacokinetics of SC ZA co-administered with rHuPH20; type: in vivo, human; conditions: human, serum, sc, serum; ZA 1 mg SC infusion + 24000 Units rHuPH20; 12 h post infusion; n=3; read-out: Median Conc.
EXPERIMENTAL_READOUT: concentration at 12 h (ng/mL)
Express your answer in ng/mL, writing the number without its unit.

Item under review: O=P(O)(O)C(O)(Cn1ccnc1)P(=O)(O)O . Reported concentration at 12 h?
1.02

---

experiment: Pharmacokinetics of ZA in pig serum after IV or SC infusion with or without rHuPH20 (LC-MS-MS, non-compartmental analysis); type: in vivo; details: female, Yorkshire, pig, serum, intravenous, […], animal ID 61, Study Group 1, IV 20 min infusion, ZA […], rHuPH20 0 U/mL, time 0.05 h; read-out: Zoledronic Acid Serum Concentration
EXPERIMENTAL_READOUT: concentration at 0.05 h (ng/mL)
Express your answer in ng/mL, writing the number without its unit.

Item under review: O=P(O)(O)C(O)(Cn1ccnc1)P(=O)(O)O . Reported concentration at 0.05 h?
196

---

experiment: Phase 1 Stage 1 clinical pharmacokinetics of SC ZA co-administered with rHuPH20; type: in vivo, human; details: human, serum, sc, ZA 5 mg SC + 24000 U rHuPH20; individual subjects
EXPERIMENTAL_READOUT: CL/F (mL/min/kg)
Express your answer in mL/min/kg, writing the number without its unit.

Item under review: O=P(O)(O)C(O)(Cn1ccnc1)P(=O)(O)O [ZA] . Reported CL/F?
2.11

---

test: Phase 1 Stage 1 clinical pharmacokinetics of SC ZA co-administered with rHuPH20; assay type: in vivo, human; conditions: human, serum, sc, […], Subj 32; ZA […] SC; inf 0.556 hr; PH20 24000 U
EXPERIMENTAL_READOUT: Cmax (ng/mL)
Express your answer in ng/mL, writing the number without its unit.

Item under review: O=P(O)(O)C(O)(Cn1ccnc1)P(=O)(O)O . Reported Cmax?
58.7

---

test: Phase 1 Stage 1 clinical pharmacokinetics of SC ZA co-administered with rHuPH20; type: in vivo, human; settings: human, serum, sc, […], Subj 77; ZA […] SC; inf […]; PH20 6000 U; read-out: Tmax
EXPERIMENTAL_READOUT: Tmax (min)
Express your answer in min, writing the number without its unit.

Item under review: O=P(O)(O)C(O)(Cn1ccnc1)P(=O)(O)O . Reported Tmax?
45

---

assay: Pharmacokinetics of ZA in pig serum after IV or SC infusion with or without rHuPH20 (LC-MS-MS, non-compartmental analysis); type: in vivo; conditions: female, Yorkshire, pig, serum, subcutaneous, pig 58, Study Group 3, SC, ZA […], rHuPH20 10000 U/mL, 50 mL over 8 min, time 0.5 h; read-out: Zoledronic Acid Serum Concentration
EXPERIMENTAL_READOUT: concentration at 0.5 h (ng/mL)
Express your answer in ng/mL, writing the number without its unit.

Item under review: O=P(O)(O)C(O)(Cn1ccnc1)P(=O)(O)O . Reported concentration at 0.5 h?
177

---

assay: Pharmacokinetics of ZA in pig serum after IV or SC infusion with or without rHuPH20 (LC-MS-MS, non-compartmental analysis); format: in vivo; settings: female, Yorkshire, pig, serum, subcutaneous, […], pig 66, Study Group 3, SC, ZA […], rHuPH20 10000 U/mL, 100 mL over 16 min, time 0.05 h; read-out: Zoledronic Acid Serum Concentration
EXPERIMENTAL_READOUT: concentration at 0.05 h (ng/mL)
Express your answer in ng/mL, writing the number without its unit.

Item under review: O=P(O)(O)C(O)(Cn1ccnc1)P(=O)(O)O [ZA] . Reported concentration at 0.05 h?
12

---

experiment: Phase 1 Stage 1 clinical pharmacokinetics of SC ZA co-administered with rHuPH20; format: in vivo, human; conditions: human, serum, sc, 0.0776 mg/kg; read-out: T½ λz (converted)
EXPERIMENTAL_READOUT: half-life (h)
Express your answer in h, writing the number without its unit.

Item under review: O=P(O)(O)C(O)(Cn1ccnc1)P(=O)(O)O . Reported half-life?
19.4

---

experiment: Phase 1 Stage 1 clinical pharmacokinetics of SC ZA co-administered with rHuPH20; format: in vivo, human; conditions: human, serum, sc, […], AUC (0-12 h), Subj 8; ZA […] SC; inf 0.531 hr; PH20 22944 U
EXPERIMENTAL_READOUT: AUC(0-t) (ng·h/mL)
Express your answer in ng·h/mL, writing the number without its unit.

Item under review: O=P(O)(O)C(O)(Cn1ccnc1)P(=O)(O)O . Reported AUC(0-t)?
28.8

---

assay: Pharmacokinetics of ZA in pig serum after IV or SC infusion with or without rHuPH20 (LC-MS-MS, non-compartmental analysis); assay type: in vivo; conditions: female, Yorkshire, pig, serum, subcutaneous, pig 58, Study Group 3, SC, ZA […], rHuPH20 10000 U/mL, 50 mL over 8 min, time 0.05 h; read-out: Zoledronic Acid Serum Concentration
EXPERIMENTAL_READOUT: concentration at 0.05 h (ng/mL)
Express your answer in ng/mL, writing the number without its unit.

Item under review: O=P(O)(O)C(O)(Cn1ccnc1)P(=O)(O)O . Reported concentration at 0.05 h?
73.8

---

assay: Phase 1 Stage 1 clinical pharmacokinetics of SC ZA co-administered with rHuPH20; type: in vivo, human; details: human, serum, sc, 0.0608 mg/kg, AUC (0-12 h), Subj 68; ZA 0.0608 mg/kg SC; inf […]; PH20 2880 U
EXPERIMENTAL_READOUT: AUC(0-t)
Remember to put the unit after the number in your answer.

Item under review: O=P(O)(O)C(O)(Cn1ccnc1)P(=O)(O)O [ZA] . Reported AUC(0-t)?
456 ng·h/mL

---

test: Phase 1 Stage 1 clinical pharmacokinetics of SC ZA co-administered with rHuPH20; type: in vivo, human; settings: human, serum, sc, ZA 5 mg SC + 24000 U rHuPH20; median, n=3; read-out: Tmax
EXPERIMENTAL_READOUT: Tmax (min)
Express your answer in min, writing the number without its unit.

Item under review: O=P(O)(O)C(O)(Cn1ccnc1)P(=O)(O)O [ZA] . Reported Tmax?
48.6

---

assay: Pharmacokinetics of ZA in pig serum after IV or SC infusion with or without rHuPH20 (LC-MS-MS, non-compartmental analysis); format: in vivo; settings: female, Yorkshire, pig, serum, intravenous, […], animal ID 61, Study Group 1, IV 20 min infusion, ZA […], rHuPH20 0 U/mL, time 0.016 h; read-out: Zoledronic Acid Serum Concentration
EXPERIMENTAL_READOUT: concentration at 0.016 h (ng/mL)
Express your answer in ng/mL, writing the number without its unit.

Item under review: O=P(O)(O)C(O)(Cn1ccnc1)P(=O)(O)O . Reported concentration at 0.016 h?
254

---

assay: Pharmacokinetics of ZA in pig serum after IV or SC infusion with or without rHuPH20 (LC-MS-MS, non-compartmental analysis); format: in vivo; settings: female, Yorkshire, pig, serum, subcutaneous, […], Time 1 h; pig ID 70; Study Group 2; SC; ZA […]; 10 mL, 1.6 min; rHuPH20 0 U/mL; read-out: Zoledronic Acid Serum Concentration
EXPERIMENTAL_READOUT: concentration at 1 h (ng/mL)
Express your answer in ng/mL, writing the number without its unit.

Item under review: O=P(O)(O)C(O)(Cn1ccnc1)P(=O)(O)O . Reported concentration at 1 h?
101

---

Assay: Phase 1 Stage 1 clinical pharmacokinetics of SC ZA co-administered with rHuPH20
Type: in vivo, human
Conditions: human, serum, sc, 0.0776 mg/kg, AUC (0-24 h), Subj 70; ZA 0.0776 mg/kg SC; inf […]; PH20 2928 U
Method: A pharmacokinetic study of zoledronic acid (ZA) co-administered with rHuPH20 in human subjects was conducted. […] Serum concentration of ZA was determined using a qualified LC-MS-MS assay after derivatization with diazomethane (Zhu, L S et al. (2006) Rapid Commun. […] The assay range was from 2.0 to 400 ng/mL with a lower limit of quantitation (LLOQ) at 2.0 ng/mL. […] Summary statistics (mean, standard deviation, and median) were calculated using JMP or Microsoft Excel.
EXPERIMENTAL_READOUT: AUC(0-t) (ng·h/mL)
Express your answer in ng·h/mL, writing the number without its unit.

Item under review: O=P(O)(O)C(O)(Cn1ccnc1)P(=O)(O)O [ZA] . Reported AUC(0-t)?
616

Source: patent US20090311237A1
